System: KM12 colon
Test: NCI-60 one-dose screen, 48 h (100 = growth as untreated, 0 = no growth, -100 = all killed)
Condition description: 10 µM unless noted
About 83,000 compounds went through this panel and 20% of them were active in at least one assay; those are over-represented in the sample as a whole. Calls of active or inactive are those of the source. How the source made its calls: active means growth percent below 10; inactive means the rest.
Observed property: growth

molecule="C=C1C[C@@]2(C)C(CC[C@]3(C)C2CC=C2C4CC(C)(C)C[C@@H](OC(=O)/C(C)=C\\C)[C@]4(C(=O)O)CC[C@]23C)C(C)(C)C1=O (stereo not given in full)" observed_property=growth result="3.05% (active)"
molecule=O=C(C(=O)N1CCCC1)c1cn(CCCn2cc(C(=O)C(=O)N3CCCC3)c3cc(Br)ccc32)c2ccc(Br)cc12 observed_property=growth result="86.2% (inactive)"
molecule="O=C1C=CN2C(=O)CC=CC2[C@@H]1O (stereo not given in full)" observed_property=growth result="105% (inactive)"
molecule="Nc1ncnc2c1N=C(c1ccc3c(c1)OCO3)CC(c1ccc(Cl)cc1)N2 (stereo not given)" observed_property=growth result="71.7% (inactive)"
molecule=c1csc(-c2cnc3nonc3n2)c1 observed_property=growth result="91.5% (inactive)"
molecule="CN1C(=O)C(C2=NNC(c3ccccc3C(=O)O)C2)C(=O)N(C)C1=O (stereo not given)" observed_property=growth result="104% (inactive)"
molecule=O=S(=O)(Nc1ccc2ccccc2c1)N1CCCCC1 observed_property=growth result="39.7% (inactive)"
molecule=COc1cnc2c(c1)C(=O)c1c-2n(CCCN2CCN(C)CC2)c(=O)c2cc(Cl)ccc12 observed_property=growth result="45.5% (inactive)"
molecule=O=C(N/N=C/c1ccccc1O)c1ccncc1 observed_property=growth result="34.3% (inactive)"
molecule=O=C(CC(=O)c1cccc(Cl)c1)c1cccc(Cl)c1 observed_property=growth result="41.9% (inactive)"

---

Tested on: BT-549 breast
Test: NCI-60 one-dose screen, 48 h (100 = growth as untreated, 0 = no growth, -100 = all killed)
Condition description: 10 µM unless noted
About 83,000 compounds went through this panel and 20% of them were active in at least one assay; those are over-represented in the sample as a whole.
Observed property: growth (%)

compound=CCCCCCCCN(CCCCCCCC)C(=O)CCl quantitative_result=98.5
compound=O=c1oc2ccccc2cc1-c1cc(-c2ccc(-c3cc(-c4cc5ccccc5oc4=O)nc(-c4cc5ccccc5oc4=O)c3)cc2)cc(-c2cc3ccccc3oc2=O)n1 quantitative_result=106
compound=COc1ccccc1/C=C/C(=O)CCC(=O)O quantitative_result=113
compound=CCCCCCCCCCCCCCCCCC1=NCCN1CCO quantitative_result=91.5
compound=CC(C)N(C(=S)SSC(=S)N(C(C)C)C(C)C)C(C)C quantitative_result=107
compound=O=C(O)CSc1ccc(NCc2oc(CO)cc(=O)c2O)cc1 quantitative_result=92.8
compound="COc1cc(C2CC(c3ccc(C)cc3)=NN2C=O)ccc1Oc1nc2c(c(=O)n(C)c(=O)n2C)n1C (stereo unspecified)" quantitative_result=97.9
compound="Nc1ncnc2c1N=C(c1ccc3c(c1)OCO3)CC(c1ccc(Cl)cc1)N2 (stereo unspecified)" quantitative_result=81.2
compound=N#Cc1ccc(-c2ccc(-c3cccs3)o2)cc1F quantitative_result=78
compound="CC(C)CCC(=O)[C@@H](C)[C@H]1[C@@H](OC2OCC(O)C(O)C2NS(C)(=O)=O)C[C@H]2[C@@H]3CC=C4C[C@@H](O)CC[C@]4(C)[C@H]3CC[C@]12C (stereo partly specified)" quantitative_result=22
compound=O=C(N/N=C\c1cc(Br)ccc1O)c1ccncc1 quantitative_result=45.2

---

Entries and their measured growth follow.
Test system: DU-145 prostate
Test: NCI-60 one-dose screen, 48 h (100 = growth as untreated, 0 = no growth, -100 = all killed)
Condition description: 10 µM unless noted
Compounds without any hit were thinned out: in the full panel of roughly 83,000, 20% have a hit.
Observed property: growth (%)

molecule=CC(C)c1ccc(-c2cnc3nonc3n2)cc1 observed_property=growth quantitative_result=30.9
molecule=C#C[C@]1(O)CC[C@H]2[C@@H]3CC=C4c5sc(-c6cccc(Br)c6)nc5CC[C@]4(C)[C@H]3CC[C@@]21C observed_property=growth quantitative_result=88.6
molecule=COc1ccccc1/C=N\Nc1ccc([N+](=O)[O-])cn1 observed_property=growth quantitative_result=114
molecule=Cn1c(-c2ccccc2)cc(=O)n1-c1ccccc1 observed_property=growth quantitative_result=120
molecule="C=CCOC(=O)C1=C(C)NC2=C(C(=O)CCC2)C1c1ccc(F)cc1 (stereo not given)" observed_property=growth quantitative_result=113

---

Test system: SK-MEL-5 melanoma
Test: NCI-60 one-dose screen, 48 h (100 = growth as untreated, 0 = no growth, -100 = all killed)
Condition description: 10 µM unless noted
About 83,000 compounds went through this panel and 20% of them were active in at least one assay; those are over-represented in the sample as a whole.
Observed property: growth (%)

compound=COc1cc2ccc(C(C)=O)cc2cc1OC quantitative_result=96.5
compound=COc1ccc(/C=C(\C#N)c2cc(OC)c(OC)c(OC)c2)cc1 quantitative_result=-37.4
compound=Cn1c(-c2ccccc2)cc(=O)n1-c1ccccc1 quantitative_result=104
compound=CCCC(CCC)(C(N)=O)C(=O)O quantitative_result=110
compound=Cc1cc(O)c2cc3c(O)c(O)ccc3cc2c1 quantitative_result=94.8
compound="O=C1CCCN1C1CCN2CCCc3cccc1c32 (stereo not drawn)" quantitative_result=110
compound=NS(=O)(=O)c1ccc(CCn2c(SCC(=O)N/N=C/c3cc4ccccc4[nH]3)nc3ccccc3c2=O)cc1 quantitative_result=31.9
compound=Fc1ccc(-c2cnc3nonc3n2)c(F)c1 quantitative_result=96.2

---

System: NCI-H460 lung
Test: NCI-60 one-dose screen, 48 h (100 = growth as untreated, 0 = no growth, -100 = all killed)
Condition description: 10 µM unless noted
This is part of a sample that, as a whole, favours compounds with a hit. Of some 83,000 tested, about 20% had one in any assay.
Binary call on growth: yes (1) from 60% upward, no (0) beneath that.

compound=CCOC(=O)C(CCCCC(NC(C)=O)(C(=O)OCC)C(=O)OCC)(NC(C)=O)C(=O)OCC test_target="NCI-H460 lung" assigned_label="yes (1)"
compound=Nc1c(C(=O)Nc2ccccc2)sc2nc3c(cc12)C(=O)CCC3 test_target="NCI-H460 lung" assigned_label="no (0)"
compound=C#CCNc1nc(NCCNC(=O)CCl)nc(N(C)CCCCc2ccccc2)n1 test_target="NCI-H460 lung" assigned_label="yes (1)"
compound="CCCCCCCCCCCC1=NC(C)(C)CN1CC(C)O (configuration not stated)" test_target="NCI-H460 lung" assigned_label="yes (1)"
compound="CCN1C(=O)N(CC)C2C1NN=c1s/c(=C\\c3ccc(Br)cc3)c(=O)n12 (configuration not stated)" test_target="NCI-H460 lung" assigned_label="no (0)"
compound=CNC(=O)c1c(NC(=O)c2ccc(C(C)C)cc2)sc2c1CCC(=O)C2 test_target="NCI-H460 lung" assigned_label="no (0)"
compound=CCN(CC)CC(=O)Nc1c(C)cc(C(=O)NN)cc1C test_target="NCI-H460 lung" assigned_label="yes (1)"
compound=Cc1cccc(N=NC(=S)NNc2cccc(C)c2)c1 test_target="NCI-H460 lung" assigned_label="yes (1)"
compound="CNC(=O)OC1C(O[C@H]2C[C@H]3[C@@H]4CC=C5C[C@@H](O)CC[C@]5(C)[C@H]4CC[C@]3(C)[C@H]2[C@H](C)C(=O)CCC(C)C)OCC(O)C1OC1OCC(O)C(O)C1OC(=O)c1ccc(OC)cc1 (some centres not stated)" test_target="NCI-H460 lung" assigned_label="no (0)"
compound=COc1ccc(-c2cc(C(=O)Nc3ccc(Br)cc3)nc3[nH]c(=O)sc23)cc1 test_target="NCI-H460 lung" assigned_label="no (0)"
compound=CN(C)c1nc(-c2ccco2)n2nc(-c3ccc(Cl)cc3)cc2n1 test_target="NCI-H460 lung" assigned_label="no (0)"
compound=CCSc1cnnc2ccccc12 test_target="NCI-H460 lung" assigned_label="yes (1)"

---

Entries and their measured growth follow.
Tested on: SN12C renal
Test: NCI-60 one-dose screen, 48 h (100 = growth as untreated, 0 = no growth, -100 = all killed)
Condition description: 10 µM unless noted
Compounds without any hit were thinned out: in the full panel of roughly 83,000, 20% have a hit. The source made the active and inactive calls. The calls were made as follows: active = growth percent below 10; inactive = the rest.
Observed property: growth

molecule=O=C1C(Cl)=C(Nc2cccc3ccccc23)C(=O)c2ccccc21 observed_property=growth result="80.1% (inactive)"
molecule=FC(F)(F)c1cc(-c2nnc3n2N=C(Cl)CS3)cc(C(F)(F)F)c1 observed_property=growth result="82.1% (inactive)"
molecule="O=C1CCCN1C(O)CCN(Cc1ccccc1)Cc1ccc(Cl)cc1 (stereo unspecified)" observed_property=growth result="101% (inactive)"
molecule=CCOC(=O)N1C2CCC(C2)N1C(=O)OCC observed_property=growth result="105% (inactive)"
molecule=Cc1ccccc1NC(=O)c1sc2nc3c(cc2c1N)C(=O)CCC3 observed_property=growth result="64.5% (inactive)"
molecule=O=C(Nc1ccc(Br)cc1)Nc1cccc(Br)c1 observed_property=growth result="32.5% (inactive)"
